# MEASURED TARGET: Neuropeptide Y receptor type 4 (Homo sapiens)
# Sequence (P50391 whole entry): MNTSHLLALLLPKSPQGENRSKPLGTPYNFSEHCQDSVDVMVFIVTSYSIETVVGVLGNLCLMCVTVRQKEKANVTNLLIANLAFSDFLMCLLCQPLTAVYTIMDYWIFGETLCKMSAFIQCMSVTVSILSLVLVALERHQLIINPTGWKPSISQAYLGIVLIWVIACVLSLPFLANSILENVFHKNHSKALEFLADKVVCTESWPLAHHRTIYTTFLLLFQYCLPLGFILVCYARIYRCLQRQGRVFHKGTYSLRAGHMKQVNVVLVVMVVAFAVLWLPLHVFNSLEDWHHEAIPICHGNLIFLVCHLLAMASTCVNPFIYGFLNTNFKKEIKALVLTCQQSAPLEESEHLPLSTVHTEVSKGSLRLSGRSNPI
# METHOD: Displacement of Cy5-[K4]hPP from human Y4 receptor expressed in CHO cells after 90 to 120 mins by flow cytometry
# Type: cell-based
Residues, ends and D or L forms follow the SMILES beside them.
Flag rule - Ki less than 0.07 µM flags 1.0; the remaining entries get 0.0.

Completed entries (count: 5):
CCCC[C@H](NC(=O)[C@H](CC(N)=O)NC(=O)[C@@H](NC(=O)[C@H](Cc1ccc(O)cc1)NC(=O)[C@H](CCCNC(=N)N)NC(=O)[C@H](CCCNC(=N)N)NC(C)=O)[C@@H](C)CC)C(=O)N[C@@H](CC(C)C)C(=O)N[C@H](C(=O)N[C@@H](CCCNC(=N)N)C(=O)N[C@H]1CC[C@H]1C(=O)N[C@@H](CCCNC(=N)N)C(=O)N[C@@H](Cc1ccc(O)cc1)C(N)=O)[C@@H](C)O (HELM PEPTIDE1{[ac].R.R.Y.I.N.[Nle].L.T.R.[O=C([C@@H]1CC[C@@H]1N[*:1])[*:2]].R.Y.[am]}$$$$V2.0)    0.0
CC(=O)N[C@H](C(=O)N[C@@H](CCCNC(=N)N)C(=O)N[C@H]1CCC[C@H]1C(=O)N[C@@H](CCCNC(=N)N)C(=O)N[C@@H](Cc1ccc(O)cc1)C(N)=O)[C@@H](C)O (HELM PEPTIDE1{[ac].T.R.[O=C([C@@H]1CCC[C@@H]1N[*:1])[*:2]].R.Y.[am]}$$$$V2.0)    0.0
CCCC[C@H](NC(=O)[C@H](CC(N)=O)NC(=O)[C@@H](NC(=O)[C@H](Cc1ccc(O)cc1)NC(=O)[C@H](CCCNC(=N)N)NC(=O)[C@H](CCCNC(=N)N)NC(C)=O)[C@@H](C)CC)C(=O)N[C@@H](CC(C)C)C(=O)N[C@H](C(=O)N[C@@H](CCCNC(=N)N)C(=O)N1CCC[C@H]1C(=O)N[C@@H](CCCNC(=N)N)C(=O)N[C@@H](Cc1ccc(O)cc1)C(N)=O)[C@@H](C)O (HELM PEPTIDE1{[ac].R.R.Y.I.N.[Nle].L.T.R.P.R.Y.[am]}$$$$V2.0)    0.0
CCCC[C@H](NC(=O)[C@H](CC(N)=O)NC(=O)[C@@H](NC(=O)[C@H](Cc1ccc(O)cc1)NC(=O)[C@H](CCCNC(=N)N)NC(=O)[C@H](CCCNC(=N)N)NC(C)=O)[C@@H](C)CC)C(=O)N[C@@H](CC(C)C)C(=O)N[C@H](C(=O)N[C@@H](CCCNC(=N)N)C(=O)N[C@H]1CCC[C@H]1C(=O)N[C@@H](CCCNC(=N)N)C(=O)N[C@@H](Cc1ccc(O)cc1)C(N)=O)[C@@H](C)O (HELM PEPTIDE1{[ac].R.R.Y.I.N.[Nle].L.T.R.[O=C([C@@H]1CCC[C@@H]1N[*:1])[*:2]].R.Y.[am]}$$$$V2.0)    1.0
CC[C@H](C)[C@H](NC(=O)[C@H](Cc1ccc(O)cc1)NC(=O)[C@H](Cc1cnc[nH]1)NC(=O)[C@H](CCCNC(=N)N)NC(C)=O)C(=O)N[C@@H](CC(N)=O)C(=O)N[C@@H](CC(C)C)C(=O)N[C@H](C(=O)N[C@H](C(=O)N[C@@H](CCCNC(=N)N)C(=O)N[C@H]1C[C@@H](C(=O)N[C@@H](CCCNC(=N)N)C(=O)N[C@@H](Cc2ccc(O)cc2)C(N)=O)C1(C)C)[C@@H](C)O)[C@@H](C)CC (HELM PEPTIDE1{[ac].R.H.Y.I.N.L.I.T.R.[CC1(C)[C@@H](N[*:1])C[C@H]1C(=O)[*:2]].R.Y.[am]}$$$$V2.0)    0.0

Q: Please check: Ki for CC[C@H](C)[C@H](NC(=O)[C@H](Cc1ccc(O)cc1)NC(=O)[C@H](Cc1cnc[nH]1)NC(=O)[C@H](CCCN=C(N)N)NC(C)=O)C(=O)N[C@@H](CC(N)=O)C(=O)N[C@@H](CC(C)C)C(=O)N[C@H](C(=O)N[C@H](C(=O)N[C@@H](CCCN=C(N)N)C(=O)N[C@H]1CCC[C@H]1C(=O)N[C@@H](CCCN=C(N)N)C(=O)N[C@@H](Cc1ccc(O)cc1)C(N)=O)[C@@H](C)O)[C@@H](C)CC (HELM PEPTIDE1{[ac].R.H.Y.I.N.L.I.T.R.[O=C([C@@H]1CCC[C@@H]1N[*:1])[*:2]].R.Y.[am]}$$$$V2.0) , strictly under 0.07 µM or not?
A: 1.0

Q: Please check: Ki for CC(=O)N[C@@H](Cc1ccc(O)cc1)C(=O)N[C@@H](CCCNC(=N)N)C(=O)N[C@H]1CCC[C@H]1C(=O)N[C@@H](CCCN=C(N)N)C(=O)N[C@@H](Cc1ccc(O)cc1)C(N)=O (HELM PEPTIDE1{[ac].Y.R.[O=C([C@@H]1CCC[C@@H]1N[*:1])[*:2]].R.Y.[am]}$$$$V2.0) , strictly under 0.07 µM or not?
A: 0.0
